Origin of values: patent US20260325685A1

tgt: human CA-IX (Homo sapiens)
Construct: purchased Acro CA9-H82E3
protocol.details: Surface Plasmon Resonance (SPR) binding kinetics to recombinant human CA-IX (Biacore 8K, single-cycle kinetics, 1:1 binding model)
conditions.used: Chelated Metal: Lu-175; SPR, 25° C., pH 7.4; read-out: CAIX KD
Please provide measured Kd for the entries that follow.

Find the recorded Kd belonging to NS(=O)(=O)c1c(F)c(F)c(S(=O)(=O)CCOCc2cn(CCCNC(=O)[C@@H]3CN(C(=O)CN4CCN(CC(=O)O)CCN(CC(=O)O)CCN(CC(=O)O)CC4)CCN3C(=O)CNC(=O)C3(C(=O)O)CCN(C(=O)CCCCc4ccc(O)cc4)CC3)nn2)c(NC2CCCCCCC2)c1F.[Lu+3] and report it.
< 1 nM

Queued: NS(=O)(=O)c1nnc(NC(=O)C23CC(c4cn(CCNC(=O)[C@@H]5CN(C(=O)CN6CCN(CC(=O)O)CCN(CC(=O)O)CCN(CC(=O)O)CC6)CCN5C(=O)C[C@H](NC(=O)C[C@H](NC(=O)Cc5n[nH]c6ccc(F)cc56)C(=O)O)C(=O)O)nn4)(C2)C3)s1.[Lu+3]
< 1 nM

Queued: CC(CCC(=O)N[C@@H](CC(=O)N[C@@H](CCC(=O)NC1(C(=O)NCCOCCOCCNC(=O)CN2CCN(CC(=O)O)CCN(CC(=O)O)CCN(CC(=O)O)CC2)CCN(C(=O)Cn2cc(CCCC(=O)Nc3nnc(S(N)(=O)=O)s3)nn2)CC1)C(=O)O)C(=O)O)(c1ccc(O)cc1)c1ccc(O)cc1.[Lu+3]
1 to 2.5 nM

Queued: NS(=O)(=O)c1nnc(NC(=O)C23CC(c4cn(CCNC(=O)[C@@H]5CN(C(=O)CN6CCN(CC(=O)O)CCN(CC(=O)O)CCN(CC(=O)O)CC6)CCN5C(=O)CNC(=O)C5(C(=O)O)CCN(C(=O)Cc6ccc7cn[nH]c7c6)CC5)nn4)(C2)C3)s1.[Lu+3]
2.5 to 10 nM

###

tgt: human CA-XII (Homo sapiens, UniProt O43570)
Construct: purchased Creative BioMart CA12-261H
Sequence (O43570 25-354): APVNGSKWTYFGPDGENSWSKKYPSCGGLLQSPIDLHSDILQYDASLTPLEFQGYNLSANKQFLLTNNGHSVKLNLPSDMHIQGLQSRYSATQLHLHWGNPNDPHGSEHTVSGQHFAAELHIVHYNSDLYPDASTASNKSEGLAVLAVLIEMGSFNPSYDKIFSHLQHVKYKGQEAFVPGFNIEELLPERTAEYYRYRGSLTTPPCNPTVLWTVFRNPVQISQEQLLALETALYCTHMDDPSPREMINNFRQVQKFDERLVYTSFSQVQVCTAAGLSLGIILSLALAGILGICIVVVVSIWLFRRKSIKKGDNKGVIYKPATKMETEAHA
protocol.details: Surface Plasmon Resonance (SPR) binding kinetics to recombinant human CA-XII (Biacore 8K, single-cycle kinetics, 1:1 binding model)
conditions.used: Chelated Metal: Lu-175, 25° C., pH 7.4, read-out: CAXII KD
quantity.measured: Kd

Find the recorded Kd belonging to NS(=O)(=O)c1nnc(NC(=O)C23CCC(c4cn(CCNC(=O)[C@@H]5CN(C(=O)CN6CCN(CC(=O)O)CCN(CC(=O)O)CCN(CC(=O)O)CC6)CCN5C(=O)CC[C@H](NC(=O)C[C@H](NC(=O)CCC56CCC(CC5)C6)C(=O)O)C(=O)O)nn4)(CC2)CC3)s1.[Lu+3] and report it.
< 1 nM

Queued: CC(CCCC(=O)N1CCC(C(=O)O)(C(=O)NCC(=O)N[C@@H](CCCCn2cc(CCCC(=O)Nc3nnc(S(N)(=O)=O)s3)nn2)C(=O)NCCOCCOCCNC(=O)CN2CCN(CC(=O)O)CCN(CC(=O)O)CCN(CC(=O)O)CC2)CC1)(c1ccc(O)cc1)c1ccc(O)cc1.[Lu+3]
> 10 nM

Queued: NS(=O)(=O)c1nnc(NC(=O)C23CC(c4cn(CCNC(=O)[C@@H]5CN(C(=O)CN6CCN(CC(=O)O)CCN(CC(=O)O)CCN(CC(=O)O)CC6)CCN5C(=O)CNC(=O)C5(C(=O)O)CCN(C(=O)Cc6ccc7cn[nH]c7c6)CC5)nn4)(C2)C3)s1.[Lu+3]
> 10 nM

Queued: N[C@@H](CC(=O)N[C@@H](CC(=O)N1CCN(C(=O)CCOCCOCCOCCOCCN(CCOCCOCCOCCOCCC(=O)N2CCN(C(=O)C[C@H](NC(=O)C[C@H](N)C(=O)O)C(=O)O)[C@H](C(=O)NCCn3cc(C45CC(C(=O)Nc6nnc(S(N)(=O)=O)s6)(C4)C5)nn3)C2)C(=O)CNC(=O)CN2CCN(CC(=O)O)CCN(CC(=O)O)CCN(CC(=O)O)CC2)C[C@H]1C(=O)NCCn1cc(C23CC(C(=O)Nc4nnc(S(N)(=O)=O)s4)(C2)C3)nn1)C(=O)O)C(=O)O.[Lu+3]
< 1 nM

Queued: CNC(=O)C1(C(=O)NCC(=O)N2CCN(C(=O)CN3CCN(CC(=O)O)CCN(CC(=O)O)CCN(CC(=O)O)CC3)C[C@@H]2C(=O)NCCn2cc(C34CC(C(=O)Nc5nnc(S(N)(=O)=O)s5)(C3)C4)nn2)CCN(C(=O)CCCC(C)(c2ccc(O)cc2)c2ccc(O)cc2)CC1.[Lu+3]
> 10 nM

Queued: CC(CCC(=O)N[C@@H](CC(=O)N[C@@H](CC(=O)N1CCN(C(=O)CN2CCN(CC(=O)O)CCN(CC(=O)O)CCN(CC(=O)O)CC2)C[C@H]1C(=O)NCCn1cc(C23CC(C(=O)Nc4nnc(S(N)(=O)=O)s4)(C2)C3)nn1)C(=O)O)C(=O)O)(c1ccccc1)c1ccc(O)cc1.[Lu+3] (stereo partly drawn)
> 10 nM
